Would you mind telling me the reported CC50 at 5 days of each entry?
# assay protocol: in vitro
# stated conditions: human, uninfected MT-4 cells, CC50 (nM), same protocol as Test A, CellTiter-Glo
// units = nM; emit number, no label

Lookup: Please look up its CC50 at 5 days: O=C(Cn1nc(C(F)F)c2c1C(F)(F)C1CC21)N[C@@H](Cc1cc(F)cc(F)c1)c1ncccc1-c1ccc2nccn2c1 (stereo partly drawn)
Found: 12100

Lookup: Item: NC(=O)c1cc(-c2cccnc2[C@H](Cc2cccc(F)c2)NC(=O)Cn2nc(C(F)(F)F)c3ccccc32)ccc1F [Example 213C]
Found: 15900

Lookup: Same thing, different compound: "CC(C)(C)OC(=O)N1C[C@@H](c2ccccc2)C[C@H]1C(=O)N[C@@H](Cc1cc(F)cc(F)c1)c1ncccc1-c1ccc(F)c(C(N)=O)c1"
Found: 12300

---

# assay protocol: in vitro
# stated conditions: human, uninfected MT-4 cells, CC50 (nM), same protocol as Test A, CellTiter-Glo
measurement kind: CC50 at 5 days (nM)
Field: numeric (nM). Do not append units.

Lookup: Which CC50 at 5 days value is on record for CCC(C(=O)N[C@@H](Cc1cc(F)cc(F)c1)c1ncccc1-c1ccc(F)c(C(N)=O)c1)n1nc(C(F)(F)F)cc1C1CC1 (some centres unmarked) [Example 511C] ?
Found: 11800

Lookup: Please give the result for O=C(Cc1c[nH]c2ccccc12)N[C@@H](Cc1cc(F)cc(F)c1)c1ncccc1-c1ccc(Cl)cc1 [Example 31] too.
Found: 8630

Lookup: And NC(=O)c1cc(-c2cccnc2[C@H](Cc2cc(F)cc(F)c2)NC(=O)Cn2nc3c(c2C(F)(F)F)C(F)(F)C2CC32)ccc1F (some centres unmarked) [Example 381] ?
Found: 24900

Lookup: Now consider Cc1ccccc1-c1cccnc1[C@H](Cc1ccccc1)NC(=O)Cn1nc(C(F)(F)F)c2c1CCCC2 [Example 17] .
Found: 13800

Lookup: Same lookup for NC(=O)c1cc(-c2cccnc2[C@H](Cc2cc(F)cc(F)c2)NC(=O)Cc2c[nH]c3c(F)cc(F)cc23)ccc1F [Example 530E] , please.
Found: 15300

Lookup: For NC(=O)c1cccc(-c2cccnc2[C@H](Cc2cc(F)cc(F)c2)NC(=O)Cc2c[nH]c3ccccc23)c1 [Example 480] then?
Found: 27800

Lookup: Try COc1ccc(-c2cccnc2[C@@H](Cc2ccccc2)NC(=O)Cn2nc(C(F)(F)F)c3c2CCCC3)cc1 [Example 23] next.
Found: 13800

Lookup: Same question for NC(=O)c1cc(-c2cccnc2[C@H](Cc2cc(F)cc(F)c2)NC(=O)Cn2nc3c(c2C(F)(F)F)CCC3)ccc1F [Example 151E] please.
Found: 20300

---

# assay protocol: in vitro
# stated conditions: human, uninfected MT-4 cells, CC50 (nM), same protocol as Test A, CellTiter-Glo
measurement kind: CC50 at 5 days (nM)
Reply with just the number (in nM).

Lookup: Given the compound NC(=O)c1cc(-c2cccnc2[C@H](Cc2cc(F)cc(F)c2)NC(=O)C2CCCN2Cc2ccccc2)ccc1F (stereo partly drawn) , what is its reported CC50 at 5 days?
Found: 6360

Lookup: Same question for "CC(C)(C)OC(=O)N1C[C@H](O)C[C@H]1C(=O)N[C@@H](Cc1cc(F)cc(F)c1)c1ncccc1-c1ccc(F)c(C(N)=O)c1" please.
Found: 22300

Lookup: Next up: "C#Cc1cn(CC(=O)N[C@@H](Cc2cc(F)cc(F)c2)c2ncccc2-c2ccc(F)c(C(N)=O)c2)nc1C(F)(F)F"
Found: 26600

Lookup: Now consider "NC(=O)c1cc(-c2cccnc2[C@H](Cc2cc(F)cc(F)c2)NC(=O)Cn2nc(C(F)(F)F)c3c2CC(F)(F)C3)ccc1F" and answer again.
Found: 19400

Lookup: Again, but for O=C(Cn1nc(C(F)F)c2c1C(F)(F)C1CC21)N[C@@H](Cc1cc(F)cc(F)c1)c1ncccc1-c1ccc(OCC2CC2)cc1 (stereo partly drawn)
Found: 20000

Lookup: Can you handle Cc1cc2ncn(CC(=O)N[C@@H](Cc3cc(F)cc(F)c3)c3ncccc3-c3cccc(S(=O)(=O)NC4CC4)c3)c2cc1C [Example 353B] next?
Found: 12700

Lookup: Now the compound "NC(=O)c1cccc(-c2cccnc2[C@H](Cc2cc(F)cc(F)c2)NC(=O)Cn2c(C(F)F)nc3ccccc32)c1"
Found: 47400

Lookup: Follow-up item: "Cc1ccccc1-c1cccnc1[C@H](Cc1ccccc1)NC(=O)Cc1c[nH]c2ccc(O)cc12"
Found: 25400

Lookup: Okay, and "NCc1ccc2[nH]cc(CC(=O)N[C@@H](Cc3cc(F)cc(F)c3)c3ncccc3-c3cccc(C(N)=O)c3)c2c1" ?
Found: 47800

Lookup: Now consider "CC(=O)Nc1cc(-c2cccnc2[C@H](Cc2cc(F)cc(F)c2)NC(=O)Cc2c[nH]c3ccc(F)cc23)ccc1F" and answer again.
Found: 14600

Lookup: What would you report for "NC(=O)c1cc(-c2cccnc2[C@H](Cc2cc(F)cc(F)c2)NC(=O)Cn2ncc3ccc(O)cc32)ccc1F" ?
Found: 21500

Lookup: Quick one: "Cc1cc2c(ccn2CC(=O)N[C@@H](Cc2cc(F)cc(F)c2)c2ncccc2-c2ccc(F)c(C(N)=O)c2)cn1"
Found: 47900

Lookup: Cool, now NC(=O)c1cc(-c2cccnc2[C@H](Cc2cc(F)cc(F)c2)NC(=O)Cn2nc(C(F)(F)F)c3c2CCCC32CC2)ccc1F [Example 277B]
Found: 19300

Lookup: "O=C(Cn1cnc2c1CCCC2)N[C@@H](Cc1cc(F)cc(F)c1)c1ncccc1Br" ?
Found: 25200

Lookup: Would you mind doing "NC(=O)c1cc(-c2cccnc2[C@H](Cc2cc(F)cc(F)c2)NC(=O)Cn2nc(C(F)(F)F)c3c2CCSC3)ccc1F" as well?
Found: 18700

Lookup: For "N#Cc1cc(-c2cccnc2[C@H](Cc2cc(F)cc(F)c2)NC(=O)Cc2c[nH]c3ccc(F)cc23)ccn1" then?
Found: 18600

Lookup: Would you kindly repeat that for NC(=O)c1cc(-c2cccnc2[C@H](Cc2cc(F)cc(F)c2)NC(=O)C2CCCN2C(=O)C2CCCC2)ccc1F (stereo partly drawn) ?
Found: 17300

Lookup: Do the same for "O=C(Cc1c[nH]c2ccc(F)cc12)N[C@H](Cc1cc(F)cc(F)c1)c1ncncc1-c1ccc(Cl)cc1" please
Found: 11200

Lookup: # iterate: NS(=O)(=O)c1cc(-c2cccnc2[C@H](Cc2cc(F)cc(F)c2)NC(=O)Cc2c[nH]c3ccc(F)cc23)ccc1F [Example 580F]
Found: 32600

Lookup: What would you report for COc1ccc(-c2cccnc2C(Cc2cc(F)cc(F)c2)NC(=O)Cn2nc(C(F)(F)F)c3c2CCCC3)c(C)c1 (stereo not drawn) ?
Found: 11400

Lookup: CCOc1ccc(-c2cccnc2[C@H](Cc2cc(F)cc(F)c2)NC(=O)Cn2nc(C(F)F)c3c2C(F)(F)C2CC32)cc1 (stereo partly drawn) ?
Found: 26300

---

Kindly supply the reported log10 CC50 at 5 days values for the records listed here.
# assay protocol: in vitro
# stated conditions: human, uninfected MT-4 cells, CC50 (nM), same protocol as Test A, CellTiter-Glo
Friendly reminder: values = log10 of CC50 at 5 days, unit nM.

Lookup: Consider the compound shown here: "O=C(Cn1nc(C(F)(F)F)c2c1CCCC2)N[C@@H](Cc1cc(F)cc(F)c1)c1ncccc1-c1cnc2[nH]ccc2c1" What is its recorded log10 CC50 at 5 days?
Found: 4.08

Lookup: Now consider N#Cc1cccc(-c2cccnc2[C@H](Cc2cc(F)cc(F)c2)NC(=O)Cn2ccc3ccccc32)c1 [Example 95C] .
Found: 4.16

Lookup: Now consider "O=C(Cc1c[nH]c2ccc(F)cc12)N[C@@H](Cc1cc(F)cc(F)c1)c1ncccc1-c1cccnc1" and answer again.
Found: 4.34

Lookup: What about this compound? Cc1cc2ncn(CC(=O)N[C@H](Cc3cc(F)cc(F)c3)c3ncncc3-c3ccc(Cl)cc3)c2cc1C [Example 279G]
Found: 3.97

Lookup: Try this compound next: "Cc1ccc2c(ccn2CC(=O)N[C@@H](Cc2cc(F)cc(F)c2)c2ncccc2-c2ccc(F)c(C(N)=O)c2)c1"
Found: 4.12

Lookup: Then what about the compound O=C(Cn1nc(C(F)F)c2c1C(F)(F)C1CC21)N[C@@H](Cc1cc(F)cc(F)c1)c1ncccc1-c1cnc2cc[nH]c2c1 (some centres unmarked) ?
Found: 4.09

Lookup: Further, for "O=C(Cc1c[nH]c2ccc(O)cc12)N[C@@H](Cc1cc(F)cc(F)c1)c1ncccc1-c1cccc(-c2nnn[nH]2)c1" ?
Found: 2.75

Lookup: Another compound to check: "O=C(Cc1c[nH]c2ccc(F)cc12)N[C@@H](Cc1cc(F)cc(F)c1)c1ncccc1-c1ccc(N2CCCC2)nc1"
Found: 4.10

Lookup: Then NC(=O)c1cc(-c2cccnc2[C@H](Cc2cc(F)cc(F)c2)NC(=O)Cn2nc(C(F)(F)F)c3c2CC2C3C2(F)F)ccc1F (some centres unmarked) [Example 199E] ?
Found: 3.98

Lookup: Repeat for the following compound: "O=C(Cn1[nH]c(=O)c2c1CCCC2)N[C@@H](Cc1cc(F)cc(F)c1)c1ncccc1-c1ccc(Cl)cc1"
Found: 4.31

Lookup: // query: "NC(=O)c1cc(-c2cccnc2[C@H](Cc2cc(F)cc(F)c2)NC(=O)Cn2cc(CNC3CC3)c(C(F)(F)F)n2)ccc1F"
Found: 4.71

Lookup: Further, for "CCOC(=O)c1cn(CC(=O)N[C@@H](Cc2cc(F)cc(F)c2)c2ncccc2-c2ccc(F)c(C(N)=O)c2)nc1C(F)(F)F" ?
Found: 4.42

Lookup: Note, next up: "O=C(Cc1c[nH]c2ccc(F)cc12)N[C@@H](Cc1cc(F)cc(F)c1)c1ncncc1-c1ccc(Cl)cc1"
Found: 4.10
